# STUDY_TARGET: T1, MLDSR (GST-MLDSR) (Rhodococcus jostii RHA1, UniProt A0A1H4Y2R3 2-168)
# T1 sequence: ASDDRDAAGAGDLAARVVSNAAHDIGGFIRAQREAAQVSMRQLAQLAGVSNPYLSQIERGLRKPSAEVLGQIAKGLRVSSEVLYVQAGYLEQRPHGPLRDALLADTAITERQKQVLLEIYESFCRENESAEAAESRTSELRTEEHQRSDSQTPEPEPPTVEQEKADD
# PROCEDURE_SUMMARY: SPR; EMSA: 20 mM Tris-HCl pH 7.5, 150 mM NaCl, 5 mM MgCl2, 1 mM EDTA, 1 mM DTT, 4% glycerol, 24 C or room temperature, 30-40 min; SPR: 20 mM Tris-HCl pH 7.5, 150 mM
# TEST_CONTEXT: protein: recombinant; tags: N-terminal GST; label: 5'-biotin on strand 1; blunt
MEASURED_ATTRIBUTE: pKd
A value of pKd is the negative decimal logarithm of a concentration given in moles per litre.

BINDER	pKd
biotin-motif 2 (23 bp) (dsDNA) DNA 1: TCCGCTAGCTGGGTGCTAACAGA DNA 2: TCTGTTAGCACCCAGCTAGCGGA	5.29

Entry biotin-motif 1 (20 bp) (dsDNA) DNA 1: GTGCTTGCAATTGCTAGCAC DNA 2: GTGCTAGCAATTGCAAGCAC has what pKd? 6.76
